For HCV RdRp (NS5B), measured IC50 is reported for the entries below.

Here is how some compounds turned out for IC50.
>>> print(df.to_string())
                                   compound  endpoint_result
0  Cc1ccc(NC(=O)C(CCCCN)NC(=O)Nc2cccc(-c3ccccc3)c2)cc1 (stereo not shown)      10 to 50 µM
1  NCCCC[C@H](NC(=O)Nc1ccc(OCc2ccccc2)cc1)C(=O)NCCO          > 50 µM
2  CNc1ccc(NC(=O)[C@H](CCCCN)NC(=O)OCC2c3ccccc3-c3ccccc32)cc1      10 to 50 µM
3  Cc1ccc(NC(=O)C(CCCNC(=O)C2CCCN2)NC(=O)OCC2c3ccccc3-c3ccccc32)cc1 (stereo not shown)          > 50 µM
4  Cc1ccc(NC(=O)[C@H](CCCCN)NC(=O)Nc2cccc3c2CCCC3)cc1          > 50 µM

Problem: Give IC50 (HCV RdRp (NS5B)) of the following compound: NCCCCC(NC(=O)OCC1c2ccccc2-c2ccccc21)C(=O)Nc1ccccc1 (stereo in doubt)
Result: > 50 µM

Problem: Give IC50 (HCV RdRp (NS5B)) of the following compound: `Cc1ccc(NC(=O)[C@H](CCCCN)NC(=O)Nc2ccc(OCc3cccc([N+](=O)[O-])c3)cc2)cc1`
Result: 10 to 50 µM

Problem: Give IC50 (HCV RdRp (NS5B)) of the following compound: Cc1ccc(NC(=O)C(CCCC[N+](C)(C)C)NC(=O)OCC2c3ccccc3-c3ccccc32)cc1 (stereo not shown)
Result: > 50 µM

Problem: Give IC50 (HCV RdRp (NS5B)) of the following compound: CCOC(=O)c1ccc(NC(=O)NC(CCCCN)C(=O)Nc2ccc(C)cc2)cc1 (stereo not shown)
Result: > 50 µM

Problem: Give IC50 (HCV RdRp (NS5B)) of the following compound: Cc1ccc(NC(=O)C(CCCCN)NC(=O)c2ccc3ccccc3c2)cc1 (stereo not shown)
Result: > 50 µM

Problem: Give IC50 (HCV RdRp (NS5B)) of the following compound: Cc1ccc(NC(=O)C(CCCCN)NC(=O)NCc2ccccc2)cc1 (stereo not shown) [Compound 168]
Result: > 50 µM

Problem: Give IC50 (HCV RdRp (NS5B)) of the following compound: `NCCCCN(CC(=O)Nc1ccc(C2CCCCC2)cc1)C(=O)Nc1ccc(OCc2ccccc2)cc1`
Result: > 50 µM

Problem: Give IC50 (HCV RdRp (NS5B)) of the following compound: `Cc1ccc(NC(=O)[C@@H](CCCCN)NC(=O)NCc2ccc(Cl)c(Cl)c2)cc1`
Result: > 50 µM

Problem: Give IC50 (HCV RdRp (NS5B)) of the following compound: `Cc1ccc(NC(=O)C2(NC(=O)OCC3c4ccccc4-c4ccccc43)CCNCC2)cc1`
Result: > 50 µM

Problem: Give IC50 (HCV RdRp (NS5B)) of the following compound: `O=C(CNC(=O)OCC1c2ccccc2-c2ccccc21)Nc1ccc(CN(C(=O)c2ccco2)C2CCCCC2)cc1`
Result: > 50 µM

Problem: Give IC50 (HCV RdRp (NS5B)) of the following compound: `CC(C)(C)Oc1ccc(C[C@H](N)C(=O)Nc2ccc(CN(C(=O)c3ccco3)C3CCCCC3)cc2)cc1`
Result: > 50 µM

These data points were gathered from patent US20070021434A1.
